Origin of measurements: the MegaScale stability set (Tsuboyama et al. 2023)

B1: r4_43_TrROS_Hall (parent)
chain: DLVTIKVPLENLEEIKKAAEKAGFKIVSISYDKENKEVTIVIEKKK

- Variants of: B1
- PROTOCOL_NOTES: folding stability dG (cDNA display proteolysis); higher = more stable
- CONDITION_CONTEXT: PBS, room temperature
The following variants are listed with their measured folding stability dG values.
RECORDED_ENDPOINT: folding stability dG

[[record]]
variant = "L2C"
value = "3.41 kcal/mol"

[[record]]
variant = "V27K"
value = "3.96 kcal/mol"

[[record]]
variant = "E14V"
value = "3.71 kcal/mol"

[[record]]
variant = "K45N"
value = "3.84 kcal/mol"

[[record]]
variant = "L9S"
value = "3.47 kcal/mol"

[[record]]
variant = "E13G"
value = "3.63 kcal/mol"

[[record]]
variant = "F24W"
value = "3.68 kcal/mol"

[[record]]
variant = "T4Y"
value = "4.13 kcal/mol"

[[record]]
variant = "D1S"
value = "3.84 kcal/mol"

[[record]]
variant = "A19T"
value = "3.8 kcal/mol"

[[record]]
variant = "S30P"
value = "0.669 kcal/mol"

[[record]]
variant = "K21E"
value = "2.94 kcal/mol"

[[record]]
variant = "I15F"
value = "4.13 kcal/mol"

[[record]]
variant = "G23C"
value = "3.84 kcal/mol"

[[record]]
variant = "I26Y"
value = "2.52 kcal/mol"

[[record]]
variant = "I5M"
value = "3.79 kcal/mol"

[[record]]
variant = "G23Q"
value = "3.51 kcal/mol"

[[record]]
variant = "S28L"
value = "3.18 kcal/mol"

[[record]]
variant = "E10C"
value = "3.35 kcal/mol"

[[record]]
variant = "K45H"
value = "3.86 kcal/mol"

[[record]]
variant = "I42F"
value = "4.17 kcal/mol"

[[record]]
variant = "K36I"
value = "3.54 kcal/mol"

[[record]]
variant = "T4V"
value = "3.48 kcal/mol"

[[record]]
variant = "V3L"
value = "3.62 kcal/mol"

[[record]]
variant = "V7C"
value = "3.66 kcal/mol"

[[record]]
variant = "L9F"
value = "3.69 kcal/mol"

[[record]]
variant = "E20M"
value = "3.72 kcal/mol"

[[record]]
variant = "P8R"
value = "3.27 kcal/mol"

[[record]]
variant = "E34P"
value = "3.68 kcal/mol"

[[record]]
variant = "L12F"
value = "3.75 kcal/mol"

[[record]]
variant = "A19R"
value = "3.11 kcal/mol"

[[record]]
variant = "V38N"
value = "2.11 kcal/mol"

[[record]]
variant = "E14T"
value = "3.76 kcal/mol"

[[record]]
variant = "I42R"
value = "2.38 kcal/mol"

[[record]]
variant = "V41M"
value = "3.48 kcal/mol"

[[record]]
variant = "I26L"
value = "3.59 kcal/mol"

[[record]]
variant = "I5K"
value = "3.27 kcal/mol"

[[record]]
variant = "K25Y"
value = "3.88 kcal/mol"

[[record]]
variant = "G23R"
value = "3.52 kcal/mol"

[[record]]
variant = "K36F"
value = "3.48 kcal/mol"

[[record]]
variant = "N11Q"
value = "3.76 kcal/mol"

[[record]]
variant = "E20A"
value = "3.68 kcal/mol"

[[record]]
variant = "I42S"
value = "2.75 kcal/mol"

[[record]]
variant = "I29N"
value = "1.97 kcal/mol"

[[record]]
variant = "T39D"
value = "3.21 kcal/mol"

[[record]]
variant = "N11F"
value = "3.59 kcal/mol"

[[record]]
variant = "D32V"
value = "3.33 kcal/mol"

[[record]]
variant = "K25M"
value = "3.63 kcal/mol"

[[record]]
variant = "E37H"
value = "3.86 kcal/mol"

[[record]]
variant = "E14F"
value = "3.99 kcal/mol"

[[record]]
variant = "K21G"
value = "3.83 kcal/mol"

[[record]]
variant = "K16C"
value = "3.47 kcal/mol"

[[record]]
variant = "K44V"
value = "3.92 kcal/mol"

[[record]]
variant = "V3R"
value = "3.4 kcal/mol"

[[record]]
variant = "I5C"
value = "3.01 kcal/mol"

[[record]]
variant = "E43G"
value = "3.26 kcal/mol"

[[record]]
variant = "Y31G"
value = "2.76 kcal/mol"

[[record]]
variant = "K16N"
value = "3.35 kcal/mol"

[[record]]
variant = "F24N"
value = "2.56 kcal/mol"

[[record]]
variant = "P8G"
value = "3.77 kcal/mol"

[[record]]
variant = "N11M"
value = "3.51 kcal/mol"

[[record]]
variant = "I5A"
value = "3.14 kcal/mol"

[[record]]
variant = "K36Q"
value = "3.48 kcal/mol"

[[record]]
variant = "D32F"
value = "3.67 kcal/mol"

[[record]]
variant = "E43Y"
value = "4.32 kcal/mol"

[[record]]
variant = "L9M"
value = "3.53 kcal/mol"

[[record]]
variant = "F24Q"
value = "2.5 kcal/mol"

[[record]]
variant = "P8S"
value = "3.49 kcal/mol"

[[record]]
variant = "N11S"
value = "3.42 kcal/mol"

[[record]]
variant = "S28N"
value = "3.42 kcal/mol"

[[record]]
variant = "V3C"
value = "3.72 kcal/mol"

[[record]]
variant = "D1H"
value = "3.83 kcal/mol"

[[record]]
variant = "D32G"
value = "3.82 kcal/mol"

[[record]]
variant = "V41I"
value = "3.64 kcal/mol"

[[record]]
variant = "S28A"
value = "3.71 kcal/mol"

[[record]]
variant = "E10S"
value = "3.85 kcal/mol"

[[record]]
variant = "I26G"
value = "0.98 kcal/mol"

[[record]]
variant = "E13H"
value = "3.55 kcal/mol"

[[record]]
variant = "T4G"
value = "3.14 kcal/mol"

[[record]]
variant = "T39V"
value = "3.56 kcal/mol"

[[record]]
variant = "I40H"
value = "-0.04 kcal/mol"

[[record]]
variant = "V38Q"
value = "1.74 kcal/mol"

[[record]]
variant = "E14H"
value = "4.06 kcal/mol"

[[record]]
variant = "A18S"
value = "3.65 kcal/mol"

[[record]]
variant = "K44Q"
value = "3.52 kcal/mol"

[[record]]
variant = "F24G"
value = "2.74 kcal/mol"

[[record]]
variant = "E43N"
value = "3.78 kcal/mol"

